- target: T1, Cynomolgus EGFR extracellular domain (Cynomolgus monkey (Macaca fascicularis), UniProt P55245 25-645 (rhesus entry))
- T1 construct: Cloned without signal peptide; also called Cynomolgus rEGFR ECD; Cynomolgus EGFR ECD
- test_summary: ELISA on cynomolgus EGFR ECD (Example 10)
reported_endpoint: binding result

| binder | result_value |
| --- | --- |
| antibody 1254 (antibody, human IgG1, kappa, V domains shown, Chimeric IgG1 kappa; also called mAb 1254) VH: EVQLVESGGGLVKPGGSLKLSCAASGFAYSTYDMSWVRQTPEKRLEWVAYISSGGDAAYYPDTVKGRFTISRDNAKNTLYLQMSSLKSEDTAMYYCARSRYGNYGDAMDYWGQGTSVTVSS VL: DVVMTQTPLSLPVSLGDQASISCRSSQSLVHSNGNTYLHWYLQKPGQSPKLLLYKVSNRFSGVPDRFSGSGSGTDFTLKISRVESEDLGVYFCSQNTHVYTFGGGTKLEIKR | binds |
| antibody 1030 (antibody, human IgG1, kappa, V domains shown, Chimeric IgG1 kappa) VH: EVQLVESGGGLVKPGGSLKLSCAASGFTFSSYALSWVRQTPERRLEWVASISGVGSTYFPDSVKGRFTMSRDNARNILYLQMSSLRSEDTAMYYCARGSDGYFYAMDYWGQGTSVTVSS VL: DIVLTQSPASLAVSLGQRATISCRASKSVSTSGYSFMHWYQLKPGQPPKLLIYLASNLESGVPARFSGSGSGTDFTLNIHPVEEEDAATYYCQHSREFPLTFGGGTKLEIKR | binds |
| antibody 1257 (antibody, human IgG1, kappa, V domains shown, Chimeric IgG1 kappa) VH: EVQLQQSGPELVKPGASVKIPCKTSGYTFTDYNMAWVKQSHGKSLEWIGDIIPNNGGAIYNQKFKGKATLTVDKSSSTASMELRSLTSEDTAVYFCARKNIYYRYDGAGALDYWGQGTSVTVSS VL: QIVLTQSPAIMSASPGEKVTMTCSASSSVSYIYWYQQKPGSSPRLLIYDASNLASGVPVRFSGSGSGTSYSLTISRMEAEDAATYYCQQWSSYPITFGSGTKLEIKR | binds |
